targetDesc: ROR gamma ligand-binding domain (hRORg) (Homo sapiens (Human))
Sequence (P51449 269-508): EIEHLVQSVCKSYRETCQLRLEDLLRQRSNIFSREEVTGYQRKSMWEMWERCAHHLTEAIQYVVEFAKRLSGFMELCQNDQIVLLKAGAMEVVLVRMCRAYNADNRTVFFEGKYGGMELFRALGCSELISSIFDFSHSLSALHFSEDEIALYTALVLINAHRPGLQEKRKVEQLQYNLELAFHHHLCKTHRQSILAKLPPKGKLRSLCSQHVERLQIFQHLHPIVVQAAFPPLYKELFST
assayInfo: GAL4-RORγ transactivation (luciferase reporter, HG5LN HeLa line)
conditionNotes: 18 hours incubation
Excerpt: GAL4-RORγ Transactivation The RORγ transactivation model was developed from the line HG5LN, which is a HeLa line that stably expresses a luciferase reporter gene controlled by a pentamer of the GAL4 recognition domain of yeast and of a β-globin promoter. […] Molecules that inhibit the ROR gamma constitutive activity reduce the luciferase expression, thus leading to a reduction in the emitted luminescence. […]
observationType: IC50

Examples from the recorded data:
> print(dat)
                                   compound   observed
1  CCc1ccc(N(CC(C)C)S(=O)(=O)c2ccc(OCC3(F)CCOCC3)c(S(C)(=N)=O)c2)cc1 (stereo not shown)   < 100 nM
2  CCc1ccc(N(CC(C)C)S(=O)(=O)c2ccc(S(=N)(=O)CC3CCOCC3)cc2)cc1 (stereo not shown)  > 1000 nM
3  CCc1ccc(N(CC(C)C)S(=O)(=O)c2ccc(NCC3CN(C(=O)OC)C3)c(S(C)(=N)=O)c2)cc1 (stereo not shown)  > 1000 nM

[ask] Form field: reported IC50 of CCc1ccc(N(CC(C)C)S(=O)(=O)c2ccc(NCC3CC4(COC4)C3)c(S(C)(=N)=O)c2)cc1 (stereo not shown)
[reply] 100 to 1000 nM

[ask] Which IC50 is listed for CCc1ccc(N(CC(C)C)S(=O)(=O)c2ccc(NC3CCC(=O)NC3)c(S(C)(=N)=O)c2)cc1 (stereo not shown) ?
[reply] > 1000 nM

[ask] // lookup IC50 for CCc1ccc(N(CC(C)C)S(=O)(=O)c2ccc(Oc3ccc(C#N)cc3)c(S(C)(=N)=O)c2)cc1 (stereo not shown)
[reply] > 1000 nM

[ask] Which IC50 is reported for this compound? CCc1ccc(N(CC(C)C)S(=O)(=O)c2ccc(OC3CCN(C(=O)OC(C)(C)C)CC3)c(S(C)(=N)=O)c2)cc1 (stereo not shown)
[reply] > 1000 nM
